- System: ABHD6 (Mus musculus, UniProt Q8R2Y0)
- Construct: Proteomes (mouse brain membrane fraction or cell lysates); from tissue; host or cells: mouse brain membrane fraction or cell lysates
- Sequence (Q8R2Y0 1-336): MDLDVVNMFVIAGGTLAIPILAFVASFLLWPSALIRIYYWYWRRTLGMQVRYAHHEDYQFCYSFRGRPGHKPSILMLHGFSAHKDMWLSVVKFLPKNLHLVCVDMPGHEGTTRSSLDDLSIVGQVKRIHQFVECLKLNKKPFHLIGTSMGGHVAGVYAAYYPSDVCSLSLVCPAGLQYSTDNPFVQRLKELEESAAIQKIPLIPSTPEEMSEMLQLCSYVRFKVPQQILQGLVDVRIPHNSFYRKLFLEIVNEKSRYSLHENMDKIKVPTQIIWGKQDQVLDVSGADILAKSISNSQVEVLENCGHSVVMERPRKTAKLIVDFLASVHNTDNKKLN
- Experiment description: In vitro competitive activity-based protein profiling (mouse), ABHD6
- Type: biochemical
- Run parameters: 1 μM inhibitor, mouse brain membrane fraction or cell lysates; read-out: ABHD6 % inh. 1 μM (mouse)
- Description: In Vitro Competitive Activity-Based Protein Profiling (Mouse). Proteomes (mouse brain membrane fraction or cell lysates) (50 μL, 1.0 mg/mL total protein concentration) were preincubated with varying concentrations of inhibitors at 37° C. […] Following gel imaging, serine hydrolase activity was determined by measuring fluorescent intensity of gel bands corresponding to MAGL and ABHD6 using ImageJ 1.49 k software. […]
Reported property: inhibition at 1 µM

Here are 3 compounds together with their reported answers.
                              sample_smiles        val
0  O=C(O)C1CCN(c2cc(Cl)c(F)cc2CN2CCN(C(=O)OC(C(F)(F)F)C(F)(F)F)CC2)CC1      ≥ 75%
1  CCC1(C(=O)O)CCN(c2cc(CN3CCN(C(=O)OC(C(F)(F)F)C(F)(F)F)CC3)cc(C(F)(F)F)c2)CC1      ≥ 75%
2  O=C(O)CN1CCN(C(=O)c2cc(C(F)(F)F)ccc2CN2CCN(C(=O)OC(C(F)(F)F)C(F)(F)F)CC2)CC1  25 to 50%

Query block: Give its inhibition at 1 µM value. Item: `O=C(O)CN1CCC2(CCN(c3cc(C(F)(F)F)ccc3CN3CCN(C(=O)OC(C(F)(F)F)C(F)(F)F)CC3)CC2)C1`
Result block: 50 to 75%

Query block: Give its inhibition at 1 µM value. Item: `O=C(OC(C(F)(F)F)C(F)(F)F)N1CCN(Cc2ccc(C(F)(F)F)cc2C2(C(=O)O)CCOCC2)CC1`
Result block: 0 to 25%

Query block: Give its inhibition at 1 µM value. Item: `O=C(O)C1CCN(c2cc(OC(F)(F)F)ccc2CN2CCN(C(=O)OC(C(F)(F)F)C(F)(F)F)CC2)CC1`
Result block: 50 to 75%
